# test.summary: inhibition of PEG-3 promoter activity – cell-based, HeLa, luciferase luminescence, primary screen (AID 588405)
# conditions: HeLa PEG-Prom luciferase reporter, overnight, at 20 µM
Out of some 360,000 compounds screened, about 6,200 (1.7%) were called active.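 Rule for the calls: active = inhibition of at least 50% at 20 µM; inactive = the rest.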 What follows is part of a selection rich in actives, with near analogues and random picks from the rest.
Response enum: 1 for active, 0 for inactive

Example results:
CN[C@H]1C[C@H]2c3cc(Oc4ccccc4C)ccc3CCN2C(=O)[C@H]1[C@H](C)O :: 0
COc1ccccc1-c1c(C#N)c(N)nc2c1CCC2 :: 0
c1cc(-c2ccc3[nH]ccc3c2)n2ccnc2c1 :: 0
CC(=O)c1ccc(Nc2nc(C(N)c3ccccc3Cl)cs2)cc1 (stereo not given) :: 0
COc1ccc2c(CN3CCN(S(=O)(=O)c4cccs4)CC3)cc(=O)oc2c1 :: 0
COCCCN(C(=O)CSCc1ccc(C)cc1)c1c(N)n(Cc2ccccc2)c(=O)[nH]c1=O :: 0
CC1(c2nnc(Cc3ccccc3)o2)CC(c2ccccc2F)=NO1 (stereo not given) :: 0
COc1cccc(CNc2nc3cc(-c4csc5ccccc45)sc3c(=O)n2C)c1 :: 0
OCCN1CCN(c2ncnc3c2ncn3[C@H]2CN(Cc3ccco3)C[C@@H](CO)O2)CC1 :: 0
NC(c1csc(NC(=O)Nc2ccccc2Oc2ccccc2)n1)c1ccccc1Cl (stereo not given) :: 1

Q) How was CCCNC(=O)C1(C)CCN(C(=O)c2ccccc2OC(F)(F)F)C1 (stereo not given) classified in this test?
A) 0

Q) How was `O=C(NCc1ccncc1)C1CCN(C(=O)c2cccc(Cl)c2)CC1` classified in this test?
A) 0

Q) How was `COc1ccc(C)cc1NC(=O)c1[nH]c(C)c(C(C)=O)c1C` classified in this test?
A) 0

Q) How was `O=C1C=CC(=O)N1c1ccc(N2CCCCC2)cc1` classified in this test?
A) 1

Q) How was `Cc1c(-c2ccccc2)nc(N)c(C#N)c1-c1cccs1` classified in this test?
A) 0

* * *

# test.summary: inhibition of PEG-3 promoter activity – cell-based, HeLa, luciferase luminescence, primary screen (AID 588405)
# conditions: HeLa PEG-Prom luciferase reporter, overnight, at 20 µM, hits give high values
Screen size: about 360,000 compounds; about 6,200 (1.7%) were called active. The sample holds actives, similar compounds and a random draw of the others, so the mix is not that of the screen.
inhibition values by entry

NCCCC[C@@H]1NC(=O)[C@H](CCC(=O)O)NC(=O)c2cc([N+](=O)[O-])cc(I)c2NCC[C@@H](C(N)=O)NC1=O :: 4.12% (inactive)
Cc1nc2c(c(C)nn2-c2ccccc2)c(C)c1C :: 21.8% (inactive)
CC(=O)Nc1ccc(C=Cc2ccc([N+](=O)[O-])cc2)cc1 :: -310% (inactive)
CC(C)[C@@H]1NC(=O)c2cc([N+](=O)[O-])cc(I)c2NCCC[C@@H](C(=O)NC(CC(=O)O)C(N)=O)NC(=O)[C@H](CO)NC1=O (stereo partly specified) :: 95.8% (active)
CC1=C(C(=O)N(C(C)C)C(C)C)CC(CC(=O)NCC2CCCCC2)C(=O)N1Cc1ccccc1 (stereo unspecified) :: 11.2% (inactive)

Q) What inhibition value was documented for this compound, COc1ccc(N2C(=O)NC(NS(=O)(=O)c3ccc(Cl)cc3)(C(F)(F)F)C2=O)cc1 (stereo unspecified) ?
A) 10.8% (inactive)

Q) What inhibition value was documented for this compound, `Cc1ccc2nc(-c3ccncc3)cc(C(=O)Nc3ccc(OC(F)F)cc3)c2c1` ?
A) 27.7% (inactive)

Q) What inhibition value was documented for this compound, CC1(Oc2cccc(F)c2)CCN(Cc2ccccc2OC(F)F)C1 (stereo unspecified) ?
A) 2.93% (inactive)
